test system: KRAS-mutant PDC tumor spheroid with HUVEC/MSC, viability; test: Anticancer human tumor 327498-153-R-J2-PDC patient-derived uterine carcinosarcoma cell line growth inhibition [KRAS2]; details: second compound 3.16 µM; first compound 3.16 µM; stronger effect = lower value;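 further: spheroids exposed to agents for seven days before reading; 100% = DMSO vehicle wells so lower means fewer viable cells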
endpoint name: viability, T/C (%)
I only need the number, in %, no unit after it.

# compound, viability, T/C, %
measured = [
    ("COC(=O)c1ccc2c(C(=Nc3ccc(N(C)C(=O)CN4CCN(C)CC4)cc3)c3ccccc3)c(O)[nH]c2c1 + C=CC(=O)N1CCN(c2nc(=O)n(-c3c(C)ccnc3C(C)C)c3nc(-c4c(O)cccc4F)c(F)cc23)C(C)C1", 6.26),
    ("CCNC(=O)CC1N=C(c2ccc(Cl)cc2)c2cc(OC)ccc2-n2c(C)nnc21 (stereo not given) + C=CC(=O)N1CCN(c2nc(=O)n(-c3c(C)ccnc3C(C)C)c3nc(-c4c(O)cccc4F)c(F)cc23)C(C)C1", 26.5),
    ("CCNC(=O)CC1N=C(c2ccc(Cl)cc2)c2cc(OC)ccc2-n2c(C)nnc21 (stereo not given) + CNCc1ccccc1-c1csc(C(C)Nc2nc(C)nc3cc(OC)c(OC)cc23)c1", 0.12),
    ("CC(=O)OC12COC1CC(O)C1(C)C(=O)C(O)C3=C(C)C(OC(=O)C(O)C(NC(=O)OC(C)(C)C)c4ccccc4)CC(O)(C(OC(=O)c4ccccc4)C21)C3(C)C (stereo not given) + CC1OCC2(CCN(c3cnc(Sc4ccnc(N)c4Cl)c(N)n3)CC2)C1N", 10.5),
]

Per the record, COc1cc(Nc2ncc3c(n2)-c2ccc(Cl)cc2C(c2c(F)cccc2OC)=NC3)ccc1C(=O)O + COc1cc2nc(C)nc(NC(C)c3cc(N)cc(C(F)(F)F)c3)c2cc1OC1CCOC1 has viability, T/C of 10.5
